The measured values listed here are drawn from patent US11447498B2.

- PROTOCOL: PK test experiments in SD rats
- Format: in vivo
- CONDITION_LABEL: male, rat, plasma, IV, 1 mg/kg
MEASURED_METRIC: Cmax (ng/mL)
Write it as a number; the unit ng/mL goes unstated.

Guide cases for Cmax, answers given:
- COMPOUND: "CC1(C)CCC2c3cc(OCCC4CC4)c4c(c3-c3cc(=O)c(C(=O)O)cn3N21)CCO4 (stereo not drawn) [Example 13]"
  ASSAY_VALUE: 1000
- COMPOUND: "COCCCOc1cc2c(c3c1OCC3)-c1cc(=O)c(C(=O)O)cn1C(C(C)C)C2 (stereo not drawn) [Example 2]"
  ASSAY_VALUE: 738
- COMPOUND: "CC(C)N1Cc2cc(OCCC3CC3)c3c(c2-c2cc(=O)c(C(=O)O)cn21)CCO3 [Example 15]"
  ASSAY_VALUE: 1500
- COMPOUND: "CC(C)C1Cc2cc(OCCC3CC3)c3c(c2-c2cc(=O)c(C(=O)O)cn21)CCO3 (stereo not drawn) [Example 3]"
  ASSAY_VALUE: 744
- COMPOUND: "CC(C)N1Cc2cc(-c3cnn(C(C)C)c3)c3c(c2-c2cc(=O)c(C(=O)O)cn21)CCO3 [Example 17]"
  ASSAY_VALUE: 932

Lab note: next compound to report on.
Short answer for CC(C)C1Cc2cc(-c3cnn(C(C)C)c3)c3c(c2-c2cc(=O)c(C(=O)O)cn21)CCO3 (stereo not drawn) [Example 9] : Cmax was 641

* * *

- PROTOCOL: PK test experiments in SD rats
- Format: in vivo
- CONDITION_LABEL: male, rat, plasma, IV, 1 mg/kg
MEASURED_METRIC: clearance (mL/min/kg)
Provide the reading as a plain figure in mL/min/kg.

// below: answered compounds
- COMPOUND: "CC(C)N1Cc2cc(OCCC3CC3)c3c(c2-c2cc(=O)c(C(=O)O)cn21)CCO3"
  MEASURED_METRIC: "clearance"
  ASSAY_VALUE: 7.32
- COMPOUND: "CC(C)N1Cc2cc(-c3cnn(C(C)C)c3)c3c(c2-c2cc(=O)c(C(=O)O)cn21)CCO3"
  MEASURED_METRIC: "clearance"
  ASSAY_VALUE: 10.1
- COMPOUND: "CC(C)C1Cc2cc(-c3cnn(C(C)C)c3)c3c(c2-c2cc(=O)c(C(=O)O)cn21)CCO3 (stereo not drawn)"
  MEASURED_METRIC: "clearance"
  ASSAY_VALUE: 14

Entry CC1(C)CCC2c3cc(OCCC4CC4)c4c(c3-c3cc(=O)c(C(=O)O)cn3N21)CCO4 (stereo not drawn) , clearance reported as 5.84

clearance reported for this compound COCCCOc1cc2c(c3c1OCC3)-c1cc(=O)c(C(=O)O)cn1C(C(C)C)C2 (stereo not drawn) : 12.6

The reported clearance of the compound CC(C)C1Cc2cc(OCCC3CC3)c3c(c2-c2cc(=O)c(C(=O)O)cn21)CCO3 (stereo not drawn) was 9.45

* * *

# AUC(0-t) annotations
- PROTOCOL: PK test experiments in beagle dogs
- Format: in vivo
- CONDITION_LABEL: male, dog, plasma, IV, 0.5 mg/kg
Report as a plain number; the unit ng·h/mL is understood.

- SUBSTANCE_SMILES: "CC(C)N1Cc2cc(-c3cnn(C(F)F)c3)c3c(c2-c2cc(=O)c(C(=O)O)cn21)CCO3"
  UNIT_OF_MEASURE: "ng·h/mL"
  ASSAY_VALUE: 9030

# evaluate next
GET /value?item= CC(C)N1Cc2cc(OCCC3CC3)c3c(c2-c2cc(=O)c(C(=O)O)cn21)CCO3 &field=AUC(0-t) returns 11900
